Attribution: paper PMC11460632

Target: Link_TSG6 (Homo sapiens)
Construct: made in house
Sequence (P98066 36-129 limits assumed): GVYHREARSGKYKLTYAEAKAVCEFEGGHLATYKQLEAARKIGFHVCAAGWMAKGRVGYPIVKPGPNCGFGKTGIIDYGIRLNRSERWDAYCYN
Assay: ITC of HA oligosaccharides binding to Link_TSG6
Settings: Table 4; ITC, 25 °C, 5 mM MES pH 6.0; mean ± SEM
Kindly supply the reported −TΔS values for the records listed here.
State just the number; it will be interpreted in kcal•mol^a1.

Notebook: CC(=O)N[C@H]1[C@H](O[C@H]2[C@H](O)[C@@H](O)[C@H](O[C@H]3[C@H](O)[C@@H](CO)O[C@@H](O[C@H]4[C@H](O)[C@@H](O)[C@H](O[C@@H]([C@H](O)[C@H](O)CO)[C@H](CNc5cccc6c5CCC6)NC(C)=O)O[C@@H]4C(=O)O)[C@@H]3NC(C)=O)O[C@@H]2C(=O)O)O[C@H](CO)[C@@H](O)[C@@H]1O[C@@H]1O[C@H](C(=O)O)[C@@H](O)[C@H](O)[C@H]1O , −TΔS read as −0.82

Form: molecule = CC(=O)N[C@H]1[C@H](O[C@H]2[C@H](O)[C@@H](O)[C@H](O[C@H]3[C@H](O)[C@@H](CO)O[C@@H](O[C@H]4[C@H](O)[C@@H](O)[C@H](O[C@H]5[C@H](O)[C@@H](CO)O[C@@H](O[C@H]6[C@H](O)[C@@H](O)[C@H](O[C@@H]([C@H](O)[C@H](O)CO)[C@H](CNc7cccc8c7CCC8)NC(C)=O)O[C@@H]6C(=O)O)[C@@H]5NC(C)=O)O[C@@H]4C(=O)O)[C@@H]3NC(C)=O)O[C@@H]2C(=O)O)O[C@H](CO)[C@@H](O)[C@@H]1O[C@@H]1O[C@H](C(=O)O)[C@@H](O)[C@H](O)[C@H]1O ; −TΔS = −2.13

====

So I've got a bunch of compounds here, and I need their ΔH values.
Biological target: Link_TSG6 (Homo sapiens)
Construct: made in house
Experiment: ITC of HA oligosaccharides binding to Link_TSG6
Settings: Table 4; ITC, 25 °C, 5 mM MES pH 6.0; mean ± SEM
Return type: number; implicit unit kcal/mol.

COc1ccc(C(=O)O)c(NC[C@H](NC(C)=O)[C@@H](O[C@@H]2O[C@H](C(=O)O)[C@@H](O[C@@H]3O[C@H](CO)[C@@H](O)[C@H](O[C@@H]4O[C@H](C(=O)O)[C@@H](O[C@@H]5O[C@H](CO)[C@@H](O)[C@H](O[C@@H]6O[C@H](C(=O)O)[C@@H](O[C@@H]7O[C@H](CO)[C@@H](O)[C@H](O[C@@H]8O[C@H](C(=O)O)[C@@H](O)[C@H](O)[C@H]8O)[C@H]7NC(C)=O)[C@H](O)[C@H]6O)[C@H]5NC(C)=O)[C@H](O)[C@H]4O)[C@H]3NC(C)=O)[C@H](O)[C@H]2O)[C@H](O)[C@H](O)CO)c1 has a reported ΔH of -8.06

// CC(=O)N[C@H]1[C@H](O[C@H]2[C@H](O)[C@@H](O)[C@H](O[C@H]3[C@H](O)[C@@H](CO)O[C@@H](O[C@H]4[C@H](O)[C@@H](O)[C@H](O[C@@H]([C@H](O)[C@H](O)CO)[C@H](CNc5cccc6c5CCC6)NC(C)=O)O[C@@H]4C(=O)O)[C@@H]3NC(C)=O)O[C@@H]2C(=O)O)O[C@H](CO)[C@@H](O)[C@@H]1O[C@@H]1O[C@H](C(=O)O)[C@@H](O)[C@H](O)[C@H]1O : ΔH value = -7.16
